target_of_assay: Amine oxidase [flavin-containing] A (Homo sapiens)
Sequence (P21397 whole entry): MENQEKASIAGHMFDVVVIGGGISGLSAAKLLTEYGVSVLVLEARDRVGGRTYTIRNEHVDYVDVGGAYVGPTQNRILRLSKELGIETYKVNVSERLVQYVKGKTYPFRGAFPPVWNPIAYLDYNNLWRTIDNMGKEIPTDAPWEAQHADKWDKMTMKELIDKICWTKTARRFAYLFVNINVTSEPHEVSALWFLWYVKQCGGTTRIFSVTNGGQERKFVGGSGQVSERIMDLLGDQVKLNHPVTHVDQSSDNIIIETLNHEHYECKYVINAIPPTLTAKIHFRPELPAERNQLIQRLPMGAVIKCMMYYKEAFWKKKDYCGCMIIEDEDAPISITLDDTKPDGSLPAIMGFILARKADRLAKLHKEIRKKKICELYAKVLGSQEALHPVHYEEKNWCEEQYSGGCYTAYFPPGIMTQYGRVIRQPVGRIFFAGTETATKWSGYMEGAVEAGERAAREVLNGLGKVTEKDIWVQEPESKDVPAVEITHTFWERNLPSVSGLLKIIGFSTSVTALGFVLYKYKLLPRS
experiment_description: Inhibition of human recombinant MAO-A expressed in baculovirus infected BTI insect cells using luminogenic MAO substrate incubated for 1 hr by MAO-Glo assay
quantity: IC50 (µM)

[I] O=C(CC1CCNCC1)c1cc2ccccc2[nH]1
[II] Cc1c(C(=O)CC2CCNCC2)[nH]c2ccccc12
IN: Compare reported IC50 values for I and II . Which is lower? // respond with label for picked entry
OUT: II
(II: 82.5 µM, I: 720 µM)
